test system: cancer cells; assay: Survival rate of cancer cells after test compound is added (flow cytometry, Annexin V-FITC/PI, clinical specimen); assay type: cell-based, patient; conditions: Homo sapiens, 18 h, Gastric cancer; 10.0 μM; read-out: Survival rate (%) All cells (Stem cells and ordinary cells)
Reported viability at 10 µM values follow for various compounds

| Compound | viability at 10 µM |
| --- | --- |
| CC1=C2CC[C@@](C)(O)[C@@H]2[C@H]2OC(=O)[C@@H](CN(C)C)[C@@H]2CC1 | 86% |
| C=C1C(=O)O[C@@H]2[C@@H]3[C@@H](CCC34CC4)C3(CC[C@@H]12)CC3 | 88% |
| C=C1CC[C@H]2C(=C)CC[C@H]3C(=C)C(=O)O[C@@H]3[C@@H]12 | 54% |
| C=C1C(=O)O[C@@H]2[C@@H]3[C@@H](CC[C@@]3(C)O)C(=C)CC[C@@H]12 | 66% |
| CN(C)C[C@@H]1C(=O)O[C@H]2[C@H]1CCC1(CC1)[C@@H]1CCC3(CC3)[C@H]21 | 87% |
| [2H][C@@]1(CN(C)C)C(=O)O[C@@H]2[C@@H]3[C@@H](CCC34CC4)C3(CC[C@H]21)CC3 | 94% |
| C=C1C(=O)O[C@H]2[C@H]1CC[C@@](C)(OC)C1CC[C@@](C)(O)[C@@H]12 (stereo partly drawn) | 88% |
| C=C1C(=O)O[C@H]2[C@H]1CCC(C)=C1CC[C@@](C)(OC(=O)CCCc3cn(CCCCCCO)nn3)[C@@H]12 | 67% |
| C=C1C(=O)O[C@H]2[C@H]1CC[C@]1(C)O[C@@]13CC[C@@](C)(O)[C@H]23 | 66% |
